Where do the numbers come from? From ChEMBL document CHEMBL2417500.

Consider the following compounds; for each one, report its CC50.
# Tested on: K562
# method_summary: Cytotoxicity against human K562 cells by MTT assay
# Assay type: functional
# run_parameters: read-out: LC50 (the source's name)

So what does the record say about CC50 for `CO[C@@H](NC(C)=O)[C@H](O)[C@]1(C)CC[C@H](C(C)C)[C@@H]1c1cc([C@]2(O)Cc3cc(O)c(=O)c(C)c4c3[C@@H](O2)[C@H](O)[C@]2(C)CC[C@H](C(C)C)[C@H]42)cc(O)c(=O)c1C` ?
120 nM

So what does the record say about CC50 for `CC(=O)O[C@@H](C=O)[C@]1(C)CC[C@H](C(C)C)[C@@H]1c1cc(/C(O)=C/c2cc(O)c(=O)c(C)c3c2[C@@H](O)[C@H](O)[C@]2(C)CC[C@H](C(C)C)[C@H]32)cc(O)c(=O)c1C` ?
40 nM

So what does the record say about CC50 for `Cc1c([C@H]2[C@@H](C(C)C)CC[C@@]2(C)C(=O)CNCCS(=O)(=O)O)cc([C@]2(O)Cc3cc(O)c(=O)c(C)c4c3[C@@H](O2)[C@H](O)[C@]2(C)CC[C@H](C(C)C)[C@H]42)cc(O)c1=O` ?
320 nM
